Listed below are compounds with pIC50 for Androgen receptor (Homo sapiens, UniProt P10275), each taken from published literature.
- study.system: Androgen receptor (Homo sapiens, UniProt P10275)
- Sequence (P10275 whole entry): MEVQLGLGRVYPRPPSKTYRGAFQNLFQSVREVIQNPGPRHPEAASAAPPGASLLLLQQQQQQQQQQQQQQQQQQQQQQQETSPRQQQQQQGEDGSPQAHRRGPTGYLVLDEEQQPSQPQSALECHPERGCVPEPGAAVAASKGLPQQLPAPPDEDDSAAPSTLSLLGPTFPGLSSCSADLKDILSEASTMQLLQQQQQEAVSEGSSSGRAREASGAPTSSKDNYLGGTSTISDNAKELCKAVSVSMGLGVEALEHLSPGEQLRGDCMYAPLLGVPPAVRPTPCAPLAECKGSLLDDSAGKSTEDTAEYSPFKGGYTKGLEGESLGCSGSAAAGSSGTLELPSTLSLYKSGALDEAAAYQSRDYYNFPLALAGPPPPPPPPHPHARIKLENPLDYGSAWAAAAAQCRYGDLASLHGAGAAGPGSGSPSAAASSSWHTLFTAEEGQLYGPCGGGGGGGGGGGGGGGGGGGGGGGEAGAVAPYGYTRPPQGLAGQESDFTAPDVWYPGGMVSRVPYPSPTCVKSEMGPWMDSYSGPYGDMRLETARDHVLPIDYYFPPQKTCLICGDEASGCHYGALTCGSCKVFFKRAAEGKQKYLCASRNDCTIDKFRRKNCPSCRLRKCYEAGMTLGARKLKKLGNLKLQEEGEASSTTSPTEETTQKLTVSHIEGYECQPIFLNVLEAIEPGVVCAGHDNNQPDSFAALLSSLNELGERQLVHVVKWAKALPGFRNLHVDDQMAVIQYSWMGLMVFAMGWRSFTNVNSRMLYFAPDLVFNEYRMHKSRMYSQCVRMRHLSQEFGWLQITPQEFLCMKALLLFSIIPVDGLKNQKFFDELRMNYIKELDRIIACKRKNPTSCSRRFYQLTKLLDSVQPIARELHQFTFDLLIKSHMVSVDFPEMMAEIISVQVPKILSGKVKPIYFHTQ
pIC50: −log10 of the molar value.

Take a look at these entries with their results.
- Cc1nn(CCCCO)c(-c2ccc(F)cc2)c1-c1ccc2c(c1)NC(=O)CO2: < 5.00
- C=CCC12CC[C@](O)(C#CC)C[C@H]1CCc1cc(O)ccc12 (single isomer, unassigned): < 6.00

Turning to the following compound.
Input: Please report the measured pIC50 for O=c1[nH]nc(Cc2ccccc2[N+](=O)[O-])c2ccccc12
Output: < 4.00

###

- study.system: Androgen receptor (Homo sapiens, UniProt P10275)
- Sequence (P10275 whole entry): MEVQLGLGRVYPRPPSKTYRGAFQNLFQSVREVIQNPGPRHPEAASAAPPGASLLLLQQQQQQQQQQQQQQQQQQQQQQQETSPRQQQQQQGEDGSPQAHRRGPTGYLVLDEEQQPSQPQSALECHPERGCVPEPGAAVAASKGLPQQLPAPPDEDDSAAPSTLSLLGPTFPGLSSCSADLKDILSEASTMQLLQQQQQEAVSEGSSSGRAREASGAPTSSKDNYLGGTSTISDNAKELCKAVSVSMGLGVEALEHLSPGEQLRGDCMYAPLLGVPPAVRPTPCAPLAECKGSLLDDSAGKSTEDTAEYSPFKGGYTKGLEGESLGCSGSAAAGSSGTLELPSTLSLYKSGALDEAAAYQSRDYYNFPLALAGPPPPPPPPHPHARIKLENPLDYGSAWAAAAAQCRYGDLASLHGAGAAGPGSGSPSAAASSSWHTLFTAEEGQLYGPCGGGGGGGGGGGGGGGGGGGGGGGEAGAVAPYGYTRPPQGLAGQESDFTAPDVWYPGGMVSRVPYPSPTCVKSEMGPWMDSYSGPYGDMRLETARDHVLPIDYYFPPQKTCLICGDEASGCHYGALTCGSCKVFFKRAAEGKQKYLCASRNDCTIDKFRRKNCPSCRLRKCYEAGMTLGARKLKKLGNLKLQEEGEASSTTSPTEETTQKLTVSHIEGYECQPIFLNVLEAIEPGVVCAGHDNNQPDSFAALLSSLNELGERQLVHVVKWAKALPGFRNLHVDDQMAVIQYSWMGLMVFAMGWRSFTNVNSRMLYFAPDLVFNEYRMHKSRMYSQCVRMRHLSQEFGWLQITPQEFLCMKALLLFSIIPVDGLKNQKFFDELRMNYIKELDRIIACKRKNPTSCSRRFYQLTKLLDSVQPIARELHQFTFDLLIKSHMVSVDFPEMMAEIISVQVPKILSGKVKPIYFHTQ
Listed below are compounds with IC50 for Androgen receptor (Homo sapiens, UniProt P10275), each taken from published literature.

• Cn1c(C#N)ccc1-c1ccc(/C(=N\O)C(C)(C)C)cc1 = 0.165 µM

Input: Please report the measured IC50 for CC1(C)Oc2cc(NS(C)(=O)=O)ccc2N(c2ccc(F)cc2)C1=O
Output: > 100 µM

Input: Please report the measured IC50 for OC1(C(F)(F)F)CCc2c1[nH]c1c(Cl)cc(Cl)cc21 (configuration not stated)
Output: 0.013 µM

Input: Please report the measured IC50 for COc1cc([C@H](O)[C@H]2CCCC3=Cc4c(cnn4-c4ccc(F)cc4)C[C@@]32C)cc(F)c1F
Output: > 5 µM

Input: Please report the measured IC50 for CC(C)c1ccc2c(c1)C(=O)C[C@H]1[C@@](C)(CNC(=O)c3ccccc3)CCC[C@]21C
Output: 83.8 µM

Input: Please report the measured IC50 for Cc1cc(-c2ccc3c(c2)NC(=O)CO3)n(-c2ccc(F)cc2)n1
Output: > 10 µM

Input: Please report the measured IC50 for Oc1cccc(-c2ccc3c(cnn3-c3ccc(F)cc3)c2)c1
Output: > 10 µM

Input: Please report the measured IC50 for CC(C)N(c1ccccc1)S(=O)(=O)c1ccc(-c2ccc3c(cnn3-c3ccc(F)cc3)c2)c(C(F)(F)F)c1
Output: > 10 µM

Input: Please report the measured IC50 for O=C1COc2ccc(C3=Nn4cnnc4SC3c3ccccc3)cc2N1 (configuration not stated)
Output: 3.6 µM

Input: Please report the measured IC50 for CC(C)C[C@@](C)(O)[C@H]1CCCC2=Cc3c(-c4ccc(F)cc4)ncn3C[C@@]21C
Output: > 4 µM

Input: Please report the measured IC50 for O=C1[C@@H]2C3C=CC(C3)[C@@H]2C(=O)N1c1ccc([N+](=O)[O-])cc1
Output: 0.664 µM

Input: Please report the measured IC50 for Cc1nn(CCCC(F)(F)F)c(-c2ccc(F)cc2)c1-c1ccc2c(c1)NC(=O)CO2
Output: > 10 µM

Input: Please report the measured IC50 for C[C@@H]1CN(c2ccc(C#N)c(C(F)(F)F)c2)[C@@H](C)CN1C(=O)Nc1ccc(N)nc1 (racemic)
Output: 0.37 µM

Input: Please report the measured IC50 for Cc1cc(N2N=C3c4ccc(C(=O)O)cc4CO[C@@H]3[C@@H]2C2CCCC2)ccc1C#N
Output: > 10 µM

Input: Please report the measured IC50 for C[C@]12Cn3cnc(-c4ccc(F)cc4)c3C=C1CCC[C@@H]2[C@](C)(O)c1cccs1
Output: > 4 µM

Input: Please report the measured IC50 for C[C@H](c1ccc(F)cc1)N1C(=O)O[C@](Cc2ccc(F)cc2)(C(=O)NCc2ccc(Cl)c(Cl)c2)C1=O
Output: > 20 µM

Input: Please report the measured IC50 for CC[C@@]12C[C@H](O)[C@](O)(c3ccccc3)C[C@H]1CCc1cc(O)ccc12
Output: > 10 µM

Input: Please report the measured IC50 for CN1CCN(c2ccc(C(=O)N3CCC4(CC3)CN(c3ccc(C#N)c(Cl)c3)C4)cc2)CC1
Output: > 10 µM

###

- study.system: Androgen receptor (Homo sapiens)
- Sequence (P10275 whole entry): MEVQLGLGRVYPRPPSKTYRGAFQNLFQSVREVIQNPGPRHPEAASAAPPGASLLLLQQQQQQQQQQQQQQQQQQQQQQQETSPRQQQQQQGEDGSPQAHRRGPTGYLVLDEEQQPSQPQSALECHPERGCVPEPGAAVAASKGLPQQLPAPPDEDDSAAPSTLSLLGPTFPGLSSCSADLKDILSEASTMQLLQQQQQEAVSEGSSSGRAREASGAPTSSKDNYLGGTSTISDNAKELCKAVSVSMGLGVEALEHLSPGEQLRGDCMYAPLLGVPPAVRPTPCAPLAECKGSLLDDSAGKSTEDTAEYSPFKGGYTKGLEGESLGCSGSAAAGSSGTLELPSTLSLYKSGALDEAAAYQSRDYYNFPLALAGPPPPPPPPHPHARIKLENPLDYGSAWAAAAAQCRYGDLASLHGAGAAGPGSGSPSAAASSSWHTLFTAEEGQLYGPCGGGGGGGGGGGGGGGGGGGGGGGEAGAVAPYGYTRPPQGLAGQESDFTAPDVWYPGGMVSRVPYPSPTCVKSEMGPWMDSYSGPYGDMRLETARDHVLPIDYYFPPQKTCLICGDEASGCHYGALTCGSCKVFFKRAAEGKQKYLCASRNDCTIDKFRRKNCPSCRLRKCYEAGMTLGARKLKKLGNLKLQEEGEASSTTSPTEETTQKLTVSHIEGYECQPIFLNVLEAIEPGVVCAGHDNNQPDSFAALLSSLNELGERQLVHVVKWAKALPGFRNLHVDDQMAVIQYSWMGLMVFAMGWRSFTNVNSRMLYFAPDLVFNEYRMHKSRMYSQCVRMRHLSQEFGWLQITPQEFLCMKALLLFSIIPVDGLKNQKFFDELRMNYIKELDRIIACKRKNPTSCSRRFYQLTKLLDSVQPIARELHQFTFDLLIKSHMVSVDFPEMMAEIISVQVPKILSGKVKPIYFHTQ
Listed below are compounds with IC50 for Androgen receptor (Homo sapiens), each taken from published literature.

* Cc1nn(CCCO)c(-c2ccc(F)cc2)c1-c1ccc2c(c1)NC(=O)CO2 | > 10 µM
* C[C@]12Cn3cnc(-c4ccc(F)cc4)c3C=C1CCC[C@@H]2[C@](C)(O)c1cccnc1 | > 4 µM
* COc1ccc(F)cc1C(C)(C)C[C@](O)(CNC(=O)c1cnn(-c2ccc(F)cc2)c1N)C(F)(F)F | > 1 µM
* CCN(c1ccccc1)S(=O)(=O)c1ccc(-c2ccc3c(cnn3-c3ccc(F)cc3)c2)c(C(F)(F)F)c1 | > 10 µM

Input: Please report the measured IC50 for CCCN(c1ccccc1)S(=O)(=O)c1ccc(-c2ccc3c(cnn3-c3ccc(F)cc3)c2)c(C(F)(F)F)c1
Output: > 10 µM
